test_summary: activity coefficient (dimensionless); of the first substance listed, at infinite dilution; xn = mol fraction of the nth substance listed
condition_set: 330 K; Liquid; Chromatography; x1 = 0
readout_name: activity coefficient

- C=CC [propene] + CC(C)O: 3.4
- CCCC [butane] + CC(C)O: 4.6
- C=C(C)C [2-methylpropene] + CC(C)O: 3.8
- CC(C)C [2-methylpropane] + CC(C)O: 4.7
- C/C=C/C [(E)-2-butene] + CC(C)O: 3.9
- C=CCC [1-butene] + CC(C)O: 3.9
- C=CC=C [1,3-butadiene] + CC(C)O: 3.3
- CCC [propane] + CC(C)O: 4.2

* * *

test_summary: activity coefficient (dimensionless); of the first substance listed, at infinite dilution; xn = mol fraction of the nth substance listed
condition_set: 310 K; Liquid; Chromatography; x1 = 0
readout_name: activity coefficient

* CCC [propane] + CC(C)O | 4.3
* C=C(C)C [2-methylpropene] + CC(C)O | 4
* C=CC [propene] + CC(C)O | 3.6
* C=CCC [1-butene] + CC(C)O | 4.1
* C/C=C/C [(E)-2-butene] + CC(C)O | 4.1
* C=CC=C [1,3-butadiene] + CC(C)O | 3.5
* CC(C)C [2-methylpropane] + CC(C)O | 5
* CCCC [butane] + CC(C)O | 4.9

* * *

test_summary: activity coefficient (dimensionless); of the first substance listed, at infinite dilution; xn = mol fraction of the nth substance listed
condition_set: 249.97 K; Liquid; Chromatography; x1 = 0
readout_name: activity coefficient

• C=CC=C [1,3-butadiene] + CC(C)O = 3.9
• CCCC [butane] + CC(C)O = 5.2
• C=CCC [1-butene] + CC(C)O = 4.4
• C=C(C)C [2-methylpropene] + CC(C)O = 4.4

* * *

test_summary: activity coefficient (dimensionless); of the first substance listed, at infinite dilution; xn = mol fraction of the nth substance listed
condition_set: 270.03 K; Liquid; Chromatography; x1 = 0
readout_name: activity coefficient

* CCCC [butane] + CC(C)O | 5.1
* C=CCC [1-butene] + CC(C)O | 4.4
* C=C(C)C [2-methylpropene] + CC(C)O | 4.3
* C=CC=C [1,3-butadiene] + CC(C)O | 3.8

* * *

test_summary: activity coefficient (dimensionless); of the first substance listed, at infinite dilution; xn = mol fraction of the nth substance listed
condition_set: 249.96 K; Liquid; Chromatography; x1 = 0
readout_name: activity coefficient

* C=CC [propene] + CC(C)O | 3.8
* CCC [propane] + CC(C)O | 4.5
* CC(C)C [2-methylpropane] + CC(C)O | 5.4
* C/C=C/C [(E)-2-butene] + CC(C)O | 4.3

* * *

test_summary: activity coefficient (dimensionless); of the first substance listed, at infinite dilution; xn = mol fraction of the nth substance listed
condition_set: 270.04 K; Liquid; Chromatography; x1 = 0
readout_name: activity coefficient

• C/C=C/C [(E)-2-butene] + CC(C)O = 4.3
• CC(C)C [2-methylpropane] + CC(C)O = 5.3
• C=CC [propene] + CC(C)O = 3.7
• CCC [propane] + CC(C)O = 4.5

* * *

test_summary: activity coefficient (dimensionless); of the first substance listed, at infinite dilution; xn = mol fraction of the nth substance listed
condition_set: 290 K; Liquid; Chromatography; x1 = 0
readout_name: activity coefficient

* CC(C)C [2-methylpropane] + CC(C)O | 5.2
* C=CCC [1-butene] + CC(C)O | 4.3
* CCCC [butane] + CC(C)O | 5.1
* C/C=C/C [(E)-2-butene] + CC(C)O | 4.2
* C=CC=C [1,3-butadiene] + CC(C)O | 3.7
* C=CC [propene] + CC(C)O | 3.7
* CCC [propane] + CC(C)O | 4.4
* C=C(C)C [2-methylpropene] + CC(C)O | 4.2
